Tested on: A498 renal
Test: NCI tumour cell line growth inhibition, 48 h
PARAMETER MEASURED: TGI (µM)
One number for each entry, in µM.

O.O=[Se](=O)(O)O.[NH-]C1CCCCC1[NH-].[Pt+2] (stereo not given)    97

Prompt: Tell me reported TGI for CCCCCCCCCC[C@@H](O)[C@H]1CC[C@@H]([C@H]2CC[C@H]([C@H](O)CCCCCCCCCC[C@@H]3CC(CC(C)=O)C(=O)O3)O2)O1 (stereo not given in full) , tested with A498 renal.
Response: 97

====

System: NCI/ADR-RES ovarian
Test: NCI tumour cell line growth inhibition, 48 h
Provide the recorded TGI for the entries that follow.
Answers are plain numbers, in µM.

Consider the worked cases shown below.
CCOc1cc(C=Nc2ccc(Oc3ccc(Cl)cc3)c(Cl)c2)ccc1O    52.9
C=C1C(=O)O[C@H]2[C@H](OC(C)=O)[C@@H](C)CCC/C(C)=C/CC[C@]3(CO3)[C@H](O)C[C@@H]12    35.2
CC(=O)OCC1OC(O[C@@H]2C[C@H]3C(C)(C)[C@H](OC(C)=O)CC[C@]3(C)[C@H]3CC[C@@H]4[C@]5(CC[C@@]4(C)[C@@]32C)O[C@@H]([C@H](O)C(C)(C)O)C[C@@H]5C)C(O)C(O)C1O (stereo not given in full)    31.1
COCCn1cc(-c2csc(-c3c[nH]c4ccc(F)cc34)n2)c2cccnc21    29.2
C=C1C(=O)OC2C1CC1OC2C(C)CCC/C(C)=C\CCC1(C)O (stereo not given)    55.2
COc1cc(/C=C/C=C2\CC(C)C/C(=C\C=C\c3ccc(O)c(OC)c3)C2=O)ccc1O (stereo not given)    77.4
Clc1cccc(Cl)c1C1ON=C(c2ccccc2)N1C12CC3CC(CC(C3)C1)C2 (stereo not given)    84.4
NC(=O)CN1CCN(c2nc(N3CCCC3)c3nc(Cl)c(NCc4ccccc4)nc3n2)CC1    40.9

Prompt: # lookup: TGI of `CN(C)c1ccc(/C=N/Nc2ccc(-c3nc4ccccc4[nH]3)cc2)cc1`
Response: 32

====

Test system: HS 578T breast
Test: NCI tumour cell line growth inhibition, 48 h; in the data active = GI50 below about 0.43 µM; inactive = the rest
Just give me one of these, please: 1 (active), 0 (inactive)

A selection of reference data follows.
O=c1c2c(=NCCCN3CCCC3)cc3c(=O)n(CCCN4CCCC4)c(=O)c4c(NCCCN5CCCC5)cc(c(O)n1CCCN1CCCC1)c2c4-3    0
CN1C=CN(Cc2ccc(-c3ccccn3)nc2)[CH-]1.CN1C=CN(Cc2ccc(-c3ccccn3)nc2)[CH-]1.[Au+3]    0
COc1cc(C(=O)c2c(-c3ccccc3)oc3ccccc23)cc(OC)c1O    0
CCOc1ccc(N2C(N)=NC(N)=NC2(C)C)cc1    0
COCCn1cc(-c2csc(-c3c[nH]c4ccc(F)cc34)n2)c2cccnc21    0

Alright, here's another compound for you.
Prompt: How did this test come out for `CCNC1=CC(=O)c2ncccc2C1=O` ?
Response: 0

====

Kindly supply the reported GI50 values for the records listed here.
System: CAKI-1 renal
Test: NCI tumour cell line growth inhibition, 48 h

Worked cases, GI50 given:
Cc1ccc(Nc2ccnc(Nc3cccc(C(N)=O)c3)n2)cc1O    4.11 µM
O=C(Nc1ccc(-c2nc3ccc(NC(=O)c4ccc(Cl)cc4)cc3[nH]2)cc1)c1ccc(Cl)cc1    7.12 µM
CC(Cl)CC(=O)Nc1ccc2c(c1)oc(=O)c1cc(NC(=O)CC(C)Cl)ccc12 (centres undefined)    19.7 µM

Continue with the molecule presented below.
Prompt: Give the measured GI50 of `C[C@@H]1CC[C@H]2C(CN3CCN(CC4=C(C(F)(F)F)O[C@@H]5O[C@@]6(C)CC[C@H]7[C@H](C)CC[C@@H]4[C@@]57OO6)CC3)=C(C(F)(F)F)O[C@@H]3O[C@@]4(C)CC[C@@H]1[C@]32OO4` .
Response: 3.16 µM

====

System: SF-539 CNS
Test: NCI tumour cell line growth inhibition, 48 h
PARAMETER MEASURED: TGI (µM)
Give bare numbers, in µM.

O=C(Nc1ccc(-c2nc3ccc(NC(=O)c4ccc(Cl)cc4)cc3[nH]2)cc1)c1ccc(Cl)cc1    6.22

// next item, TGI requested
Prompt: Param readout= TGI; system= SF-539 CNS; entry= `CCC[CH2][Ge]([CH2]CCC)([CH2]CCC)[O]C(=O)CCl` ; returns value.
Response: 6.85

====

Kindly supply the reported TGI values for the records listed here.
System: NCI/ADR-RES ovarian
Assay: NCI tumour cell line growth inhibition, 48 h

CCCNC(=O)Cn1c(-c2ccccc2)cc2ccccc21    > 100 µM
Nc1ccccc1C#Cc1ccccc1C#CCCCCO    39.4 µM
CCOC(=O)C1C2C1C1C(C(=O)OCC)C21 (stereo unspecified)    > 100 µM

Dear colleague, could you please provide TGI for the molecules listed below?
1. CC(=O)Oc1ccc(-c2c(OC(C)=O)c(OC(C)=O)c(-c3ccc(OC(C)=O)c(OC(C)=O)c3)c(OC(C)=O)c2OC(C)=O)cc1
2. O=[N+]([O-])c1ccc(-c2nc3ccccc3o2)cc1
3. Cc1nc(-c2ccc(Cl)cc2)cn2c1nc1ccccc12

Response:
> 100 µM
> 100 µM
> 100 µM

====

Test system: ACHN renal
Experiment: NCI tumour cell line growth inhibition, 48 h
Task for the reader: assign each of the following compounds its reported GI50.

Previously resolved entries follow.
O=C(N/N=C\c1cc(Cl)ccc1O)N/N=C/c1cc(Cl)ccc1O    1.17 µM
N#CC(C#N)=C/C=C/c1cccc([N+](=O)[O-])c1    0.927 µM

Items follow; give GI50 for each.
1. COc1cc(C(=O)c2c(-c3ccccc3)oc3ccccc23)cc(OC)c1O
2. CCNC1=CC(=O)c2ncccc2C1=O
3. Cc1ccc(Nc2ccnc(Nc3cccc(C(N)=O)c3)n2)cc1O
4. CC(Cl)CC(=O)Nc1ccc2c(c1)oc(=O)c1cc(NC(=O)CC(C)Cl)ccc12 (stereo not given)
5. C[C@@H]1CC[C@H]2C(CN3CCN(CC4=C(C(F)(F)F)O[C@@H]5O[C@@]6(C)CC[C@H]7[C@H](C)CC[C@@H]4[C@@]57OO6)CC3)=C(C(F)(F)F)O[C@@H]3O[C@@]4(C)CC[C@@H]1[C@]32OO4

Response:
1: 4.49 µM; 2: 5.9 µM; 3: 4.32 µM; 4: 12.2 µM; 5: 2.61 µM

Fill in GI50 for each of the 6 compounds listed.
1. Brc1ccc2[nH]cc(-c3nc(-c4c[nH]c5ccncc45)cs3)c2c1
2. COc1cc(Nc2ncc(-c3ccccc3)o2)cc(OC)c1OC
3. CC(=O)OCC1OC(O[C@@H]2C[C@H]3C(C)(C)[C@H](OC(C)=O)CC[C@]3(C)[C@H]3CC[C@@H]4[C@]5(CC[C@@]4(C)[C@@]32C)O[C@@H]([C@H](O)C(C)(C)O)C[C@@H]5C)C(O)C(O)C1O (stereo not given in full)
4. COc1ccccc1OCC(O)CO (stereo not given)
5. COc1cc(C=NCC(=O)CSC(c2ccccc2)c2ccccc2)cc(OC)c1OC
6. CC1=CC(=O)c2[nH]c3ccccc3c2C1=O

Response:
1. 1.77 µM
2. 1.18 µM
3. 9.23 µM
4. > 100 µM
5. 26.4 µM
6. 4.14 µM

====

Tested on: HCT-116 colon
Assay: NCI tumour cell line growth inhibition, 48 h
So I've got a bunch of molecules here, and I need their TGI values.

Please give TGI, item by item, for the list that follows.
1. Cn1cnc([N+](=O)[O-])c1Sc1nncc2[nH]cnc12
2. C1CCN2CC34CC(CC5CCCN(C6CCCC3N6)C54)C2C1 (centres undefined)
3. COc1cc(/C=C2\N=C(c3ccccc3)N(c3ccc(C(=O)c4ccccc4)cc3N3C(=O)/C(=C/c4cc(OC)c(OC)c(OC)c4)N=C3c3ccccc3)C2=O)cc(OC)c1OC
4. CC(C)(C)c1ccc(C(O)(c2ccc(C(C)(C)C)cc2)c2ccc(C(C)(C)C)cc2)cc1

Response:
1. > 100 µM
2. > 100 µM
3. 52.2 µM
4. > 100 µM

====

System: EKVX NSCLC
Experiment: NCI tumour cell line growth inhibition, 48 h
PARAMETER MEASURED: TGI

Use these answered entries as a reference point.
CCCNC(=O)Cn1c(-c2ccccc2)cc2ccccc21    > 100 µM
NC(=O)c1ccc(-c2c3ccccc3cc3c2ccc2ccccc23)cc1    > 100 µM
Cn1cc(/C=C2\C(=O)Nc3cccnc32)c2ccccc21    > 25 µM
CC1=CC(=O)c2[nH]c3ccccc3c2C1=O    8.48 µM
Cc1cccc(-c2cc(=O)c3c(C)ccnc3[nH]2)c1    > 100 µM

Report TGI for each item below.
1. Cc1ccc(C)c2sc3cc(=O)ccc-3nc12
2. Oc1cc(Br)cc2cc(Br)cnc12

Response:
> 100 µM
37.4 µM
